# Tested on: TO-3-N3-2 (biotin conjugate)
# experiment: pull-down binding Z-score (relative to library population); higher = stronger binding
# condition: RNA library: Library-2
For each entry below, report its pull-down binding Z-score value.
# output: bare number, no unit

Answer with the recorded pull-down binding Z-score of CCGUGCCCUGGCCACUCAUUCGG [hsa-mir-6741] only.
0.133

Answer with the recorded pull-down binding Z-score of GCCCUGGGCCGGGCGAUGUCCGCUUGGGGG [hsa-mir-6090] only.
0.149

Answer with the recorded pull-down binding Z-score of GGAUAGAAACUAUUAUUCUAUUC [hsa-mir-664a] only.
-0.303

Answer with the recorded pull-down binding Z-score of CGGGGCGGGAGGGGAAGGGACGCCCG [hsa-mir-6850] only.
7.75

Answer with the recorded pull-down binding Z-score of GGGUUGGGUUGGGUUGGGUUGGGUUGGGUU [G4_r(GGGUU)6] only.
10.1

Answer with the recorded pull-down binding Z-score of CAGGACACGAGUAACUCGUCUAUCUUCUG [SARS-CoV-2-Conserved-Structured-36_Interval-120-237_Motif_2] only.
-0.0048

Answer with the recorded pull-down binding Z-score of UCCUGAUCUGAUGGAAGUCAUGA [hsa-mir-7843] only.
-0.16

Answer with the recorded pull-down binding Z-score of GCCAGCACAUGGUCCAGCCAAAAACAUGGAGUAUGAUGCUGUUGC [IAV_invivo_PB1_2_Motif_34+IAV_invivo_PB1_2_Motif_34] only.
-0.346

Answer with the recorded pull-down binding Z-score of UGGGUUGAACUGUGUGGACAAGCUCA [hsa-mir-181b-1] only.
-0.042

Answer with the recorded pull-down binding Z-score of `UGUCACAUCAAUCUGACA` only.
-0.268

Answer with the recorded pull-down binding Z-score of AUGAUUUUUGGGGUCA [hsa-mir-4678] only.
-0.1

Answer with the recorded pull-down binding Z-score of UUGCCCAA [hsa-mir-548bb] only.
-0.317

Answer with the recorded pull-down binding Z-score of AAGGUGGAGUUCUGGGUGCUGUUUUCCCACUCU [hsa-mir-378i] only.
0.299

Answer with the recorded pull-down binding Z-score of GACCUGGAUGUGUAGGAGCUAAGACACACUCCAGGGG [hsa-mir-920] only.
0.531

Answer with the recorded pull-down binding Z-score of CAGAGUUCCCUUCUUGUGAGCUCAG [hsa-mir-6733] only.
-0.714

Answer with the recorded pull-down binding Z-score of UGCUCUGAUGAAGACCCAUGUGGC [hsa-mir-621] only.
0.285

Answer with the recorded pull-down binding Z-score of GGCAGGUGCCUCCGUGUUGCCGAACCCUCCU [hsa-mir-6761] only.
0.116

Answer with the recorded pull-down binding Z-score of CCCAAGUCAUGAAGGAGAGGG [IAV_invivo_PA_3_Motif_13+IAV_invivo_PA_3_Motif_13] only.
0.497

Answer with the recorded pull-down binding Z-score of GAGUACCUUCCAACACGAGCUCUC [hsa-mir-3664] only.
-0.173

Answer with the recorded pull-down binding Z-score of CCACGGGCUGGGCACAGUGG [hsa-mir-3159] only.
0.391

###

For each entry below, report its pull-down binding Z-score value.
# System: TO-3-N3 (biotin conjugate)
# experiment: pull-down binding Z-score (relative to library population); higher = stronger binding
# condition: RNA library: Library-2
# output: bare number, no unit

Please report pull-down binding Z-score with TO-3-N3 (biotin conjugate) for item `AAAGUGCAGUGAAAAGAACAAUCAAGGGUACACACCACUGGUUGUUACUCACAAUUUUGACUUCACUUU` .
-0.381

Please report pull-down binding Z-score with TO-3-N3 (biotin conjugate) for item GGUGGCAAACCUUGUAUCAAAGUAGCCACU [SHAPE_invitro_SARS-CoV-2_Motif_216] .
-0.569

Please report pull-down binding Z-score with TO-3-N3 (biotin conjugate) for item GAUUUGGCUACUAACAAUC [SHAPE_invitro_SARS-CoV-2_Motif_40] .
0.705

Please report pull-down binding Z-score with TO-3-N3 (biotin conjugate) for item UUGUGUGGUAUCCGUAUAGUCACAG [hsa-mir-10b] .
-0.416

Please report pull-down binding Z-score with TO-3-N3 (biotin conjugate) for item CCCACUUCCUGGA [hsa-mir-4260] .
-0.513

Please report pull-down binding Z-score with TO-3-N3 (biotin conjugate) for item AGGUGCUAGGUCGGCCUCGGC [hsa-mir-5787] .
0.284

Please report pull-down binding Z-score with TO-3-N3 (biotin conjugate) for item UGUUCACGUGGAGAGGAGUUAAACA [hsa-mir-499b] .
0.0485

Please report pull-down binding Z-score with TO-3-N3 (biotin conjugate) for item CUGUCCUGGACUGGGGUCAGACUGUGCCCCGAGGAGAAGCAG [hsa-mir-922] .
-0.2

Please report pull-down binding Z-score with TO-3-N3 (biotin conjugate) for item UUAAUGAGGCCAUAGA [hsa-mir-6863] .
-0.374

Please report pull-down binding Z-score with TO-3-N3 (biotin conjugate) for item AAGGCCAGGACCCGCUGACCCAU [hsa-mir-6872] .
0.148

Please report pull-down binding Z-score with TO-3-N3 (biotin conjugate) for item GUGCCAGCACAAAAUGCUAUAAGCAC [IAV_invivo_PB1_2_Motif_3+IAV_invivo_PB1_2_Motif_3] .
-0.871

Please report pull-down binding Z-score with TO-3-N3 (biotin conjugate) for item UGCCCUGGGGCCGUCCCUGCGCA [hsa-mir-1909] .
0.425

Please report pull-down binding Z-score with TO-3-N3 (biotin conjugate) for item GAGUCAGAAAAACUAC [hsa-mir-601] .
0.125

Please report pull-down binding Z-score with TO-3-N3 (biotin conjugate) for item `UAAAUAAGGGACACUUUGAUGGACAACAGGGUGAAGUACCAGUUUCUAUCAUUAAUAACACUGUUUACACAAAAGUUGAUGGUGUUGAUGUAGAAUUGUUUG` .
-0.266

Please report pull-down binding Z-score with TO-3-N3 (biotin conjugate) for item `GGACUUGAAAGAGCC` .
-0.384

Please report pull-down binding Z-score with TO-3-N3 (biotin conjugate) for item `CUCCAAAAAGAG` .
-0.901

Please report pull-down binding Z-score with TO-3-N3 (biotin conjugate) for item CGUAUGUGUAUAUAAAUGUAUACG [hsa-mir-1277] .
-0.965

Please report pull-down binding Z-score with TO-3-N3 (biotin conjugate) for item GGUUUGUUGCC [IAV_invivo_PB1_2_Motif_26+IAV_invivo_PB1_2_Motif_26] .
0.00909

Please report pull-down binding Z-score with TO-3-N3 (biotin conjugate) for item GGUGUCGAACUCAUGGCUGCCACC [hsa-mir-6782] .
-0.346

Please report pull-down binding Z-score with TO-3-N3 (biotin conjugate) for item `AACUGCUUUUGGCUUAGUUGCAGAGUGGUU` .
-0.63

###

For each entry below, report its pull-down binding Z-score value.
# System: TO-3-N3-2 (biotin conjugate)
# experiment: pull-down binding Z-score (relative to library population); higher = stronger binding
# condition: RNA library: Library-2
# output: bare number, no unit

Answer with the recorded pull-down binding Z-score of UGCAGUGCUGGGCAUGGGCUUCUCG [hsa-mir-3677] only.
0.328

Answer with the recorded pull-down binding Z-score of CGGUCCCAUAUUGAACUCG [hsa-mir-4444-1_4444-2] only.
-0.418

Answer with the recorded pull-down binding Z-score of CUGUUGAAAGAAAAG [hsa-mir-526a-2] only.
0.511

Answer with the recorded pull-down binding Z-score of UUGUGUGGUAUCCGUAUAGUCACAG [hsa-mir-10b] only.
-0.634

Answer with the recorded pull-down binding Z-score of UUCUGCUGUGCCUUACAGCAGUAGAA [hsa-mir-3179-4_3179-1_3179-3_3179-2] only.
-0.383

Answer with the recorded pull-down binding Z-score of UGCAAAUGCAAAGUUGGCUUUUGCA [hsa-mir-3680-2_3680-1] only.
-0.253

###

For each entry below, report its pull-down binding Z-score value.
# Test system: G-clamp-N3 (biotin conjugate)
# experiment: pull-down binding Z-score (relative to library population); higher = stronger binding
# condition: RNA library: Library-1 (pre-miRNA loops + repeats)
# output: bare number, no unit

Answer with the recorded pull-down binding Z-score of CUUUCUGUUGUCUGAGAGAAAAGAAAG [hsa-mir-520a] only.
0.6

Answer with the recorded pull-down binding Z-score of GGUCUGAGCCCAUGUGUGGACCUAGGUCUGCUGUUAAACUGACU [hsa-mir-6831] only.
-0.752

Answer with the recorded pull-down binding Z-score of GGCACUGGGUAUCGUAGGUGCC [hsa-mir-3116-1] only.
2.06

Answer with the recorded pull-down binding Z-score of CAGCACUGAGCAGGCAGUGUUGU [hsa-mir-4288] only.
-0.48

Answer with the recorded pull-down binding Z-score of UUUUUGUUUUUGAGACAGAGU [hsa-mir-4472-2] only.
-0.943

Answer with the recorded pull-down binding Z-score of GCUUAUUGAUGUAGCCAACAAGC [hsa-mir-3148] only.
-0.529

Answer with the recorded pull-down binding Z-score of UCCCAGGCCCUUCCUCCAAUACUGGGA [hsa-mir-4666b] only.
-0.809

Answer with the recorded pull-down binding Z-score of CUGCGGCCCUGAUGUCUCUACUCCAG [hsa-mir-4691] only.
-0.134

Answer with the recorded pull-down binding Z-score of CUGGGUGGGACACUCAG [hsa-mir-4692] only.
-0.443

Answer with the recorded pull-down binding Z-score of UCUGGGGAGAGAGUCCUCUUUUCAGC [hsa-mir-8082] only.
-0.804

Answer with the recorded pull-down binding Z-score of UUCUGCUGUGCCUUACAGCAGUAGAA [hsa-mir-3179-4_3179-1_3179-3_3179-2] only.
0.67

Answer with the recorded pull-down binding Z-score of GAACACUAUUCCAUUGUGUUC [hsa-mir-588] only.
0.0194

Answer with the recorded pull-down binding Z-score of CUUCAGCCCCAGGAAGCCUUGGUCGGGGGCAGGAG [hsa-mir-647] only.
0.744

Answer with the recorded pull-down binding Z-score of CUCGGGUGGAUAAGUCUGAUCUGAG [hsa-mir-3663] only.
1.2

Answer with the recorded pull-down binding Z-score of UAGGCUGUUUCCAUCUGUGAGGCCUA [hsa-mir-26a-2] only.
-0.141

Answer with the recorded pull-down binding Z-score of UGCCAUACUUUUAACGGCA [hsa-mir-548i-4] only.
-0.464

Answer with the recorded pull-down binding Z-score of CAGCCCCGUGUGUUGAGGAAGGAAGG [hsa-mir-940] only.
1.54
